src = paper PMC2800315

experiment: Pharmacokinetics of RAD001 in blood, Phase I once-daily oral dosing; format: in vivo, Japanese patients; settings: human, whole blood, oral, 10 mg/day, tmax Range, Day 1, 10 mg/day (n = 3)
recorded_metric: Tmax

Ask: Please give the measured Tmax for this compound: "CO[C@H]1C[C@@H]2CC[C@@H](C)[C@@](O)(O2)C(=O)C(=O)N2CCCC[C@H]2C(=O)O[C@H]([C@H](C)C[C@@H]2CC[C@@H](OCCO)[C@H](OC)C2)CC(=O)[C@H](C)/C=C(\C)[C@@H](O)[C@@H](OC)C(=O)[C@H](C)C[C@H](C)/C=C/C=C/C=C/1C"
Reply: 1.92 to 2 h

###

test: Pharmacokinetics of RAD001 in blood, Phase I once-daily oral dosing; type: in vivo, Japanese patients; details: human, whole blood, oral, 10 mg/day, Cmax, Day 15, 10 mg/day (n = 3), mean ± SD
recorded_metric: Cmax (ng/mL)
One number for each entry, in ng/mL.

Ask: State the recorded Cmax for this entry: CO[C@H]1C[C@@H]2CC[C@@H](C)[C@@](O)(O2)C(=O)C(=O)N2CCCC[C@H]2C(=O)O[C@H]([C@H](C)C[C@@H]2CC[C@@H](OCCO)[C@H](OC)C2)CC(=O)[C@H](C)/C=C(\C)[C@@H](O)[C@@H](OC)C(=O)[C@H](C)C[C@H](C)/C=C/C=C/C=C/1C [RAD001, everolimus]
Reply: 65.9

###

test: Pharmacokinetics of RAD001 in blood, Phase I once-daily oral dosing; assay type: in vivo, Japanese patients; conditions: human, whole blood, oral, 10 mg/day, tmax Range, Day 15, 10 mg/day (n = 3)
recorded_metric: Tmax

Ask: Name the reported Tmax value associated with the compound "CO[C@H]1C[C@@H]2CC[C@@H](C)[C@@](O)(O2)C(=O)C(=O)N2CCCC[C@H]2C(=O)O[C@H]([C@H](C)C[C@@H]2CC[C@@H](OCCO)[C@H](OC)C2)CC(=O)[C@H](C)/C=C(\C)[C@@H](O)[C@@H](OC)C(=O)[C@H](C)C[C@H](C)/C=C/C=C/C=C/1C"
Reply: 2 to 2.2 h

###

experiment: Pharmacokinetics of RAD001 in blood, Phase I once-daily oral dosing; type: in vivo, Japanese patients; conditions: human, whole blood, oral, 10 mg/day, AUCτ, Day 1, 10 mg/day (n = 3), 0 to 24 h, mean ± SD
recorded_metric: AUC (ng·h/mL)
Answers are plain numbers, in ng·h/mL.

Ask: So what's the measured AUC for this one? "CO[C@H]1C[C@@H]2CC[C@@H](C)[C@@](O)(O2)C(=O)C(=O)N2CCCC[C@H]2C(=O)O[C@H]([C@H](C)C[C@@H]2CC[C@@H](OCCO)[C@H](OC)C2)CC(=O)[C@H](C)/C=C(\C)[C@@H](O)[C@@H](OC)C(=O)[C@H](C)C[C@H](C)/C=C/C=C/C=C/1C"
Reply: 401

###

assay: Pharmacokinetics of RAD001 in blood, Phase I once-daily oral dosing; format: in vivo, Japanese patients; conditions: human, whole blood, oral, 2.5 mg/day, tmax Median, Day 1, 2.5 mg/day (n = 3)
recorded_metric: Tmax (h)
One number for each entry, in h.

Ask: What Tmax value was documented for this molecule, "CO[C@H]1C[C@@H]2CC[C@@H](C)[C@@](O)(O2)C(=O)C(=O)N2CCCC[C@H]2C(=O)O[C@H]([C@H](C)C[C@@H]2CC[C@@H](OCCO)[C@H](OC)C2)CC(=O)[C@H](C)/C=C(\C)[C@@H](O)[C@@H](OC)C(=O)[C@H](C)C[C@H](C)/C=C/C=C/C=C/1C" ?
Reply: 1.98

###

assay: Pharmacokinetics of RAD001 in blood, Phase I once-daily oral dosing; type: in vivo, Japanese patients; settings: human, whole blood, oral, 5 mg/day, Cmax, Day 15, 5 mg/day (n = 3), mean ± SD
recorded_metric: Cmax (ng/mL)
Numbers only, in ng/mL.

Ask: Consider the molecule shown here: "CO[C@H]1C[C@@H]2CC[C@@H](C)[C@@](O)(O2)C(=O)C(=O)N2CCCC[C@H]2C(=O)O[C@H]([C@H](C)C[C@@H]2CC[C@@H](OCCO)[C@H](OC)C2)CC(=O)[C@H](C)/C=C(\C)[C@@H](O)[C@@H](OC)C(=O)[C@H](C)C[C@H](C)/C=C/C=C/C=C/1C" What is its recorded Cmax?
Reply: 57.6

###

test: Pharmacokinetics of RAD001 in blood, Phase I once-daily oral dosing; format: in vivo, Japanese patients; conditions: human, whole blood, oral, 10 mg/day, Cmax, Day 1, 10 mg/day (n = 3), mean ± SD
recorded_metric: Cmax

Ask: What measured Cmax goes with "CO[C@H]1C[C@@H]2CC[C@@H](C)[C@@](O)(O2)C(=O)C(=O)N2CCCC[C@H]2C(=O)O[C@H]([C@H](C)C[C@@H]2CC[C@@H](OCCO)[C@H](OC)C2)CC(=O)[C@H](C)/C=C(\C)[C@@H](O)[C@@H](OC)C(=O)[C@H](C)C[C@H](C)/C=C/C=C/C=C/1C" ?
Reply: 49.4 ng/mL

###

assay: Pharmacokinetics of RAD001 in blood, Phase I once-daily oral dosing; assay type: in vivo, Japanese patients; conditions: human, whole blood, oral, 10 mg/day, tmax Median, Day 15, 10 mg/day (n = 3)
recorded_metric: Tmax (h)
Answers are plain numbers, in h.

Ask: Any idea what its Tmax is? The compound is "CO[C@H]1C[C@@H]2CC[C@@H](C)[C@@](O)(O2)C(=O)C(=O)N2CCCC[C@H]2C(=O)O[C@H]([C@H](C)C[C@@H]2CC[C@@H](OCCO)[C@H](OC)C2)CC(=O)[C@H](C)/C=C(\C)[C@@H](O)[C@@H](OC)C(=O)[C@H](C)C[C@H](C)/C=C/C=C/C=C/1C"
Reply: 2.02

###

test: Pharmacokinetics of RAD001 in blood, Phase I once-daily oral dosing; format: in vivo, Japanese patients; settings: human, whole blood, oral, 5 mg/day, AUCτ, Day 1, 5 mg/day (n = 3), 0 to 24 h, mean ± SD
recorded_metric: AUC (ng·h/mL)
Numbers only, in ng·h/mL.

Ask: Requested read-out: AUC. Entry: CO[C@H]1C[C@@H]2CC[C@@H](C)[C@@](O)(O2)C(=O)C(=O)N2CCCC[C@H]2C(=O)O[C@H]([C@H](C)C[C@@H]2CC[C@@H](OCCO)[C@H](OC)C2)CC(=O)[C@H](C)/C=C(\C)[C@@H](O)[C@@H](OC)C(=O)[C@H](C)C[C@H](C)/C=C/C=C/C=C/1C [RAD001, everolimus]
Reply: 211

###

test: Pharmacokinetics of RAD001 in blood, Phase I once-daily oral dosing; type: in vivo, Japanese patients; conditions: human, whole blood, oral, 2.5 mg/day, AUCτ, Day 15, 2.5 mg/day (n = 3), 0 to 24 h, mean ± SD
recorded_metric: AUC (µg·h/mL)
Numbers only, in µg·h/mL.

Ask: Item "CO[C@H]1C[C@@H]2CC[C@@H](C)[C@@](O)(O2)C(=O)C(=O)N2CCCC[C@H]2C(=O)O[C@H]([C@H](C)C[C@@H]2CC[C@@H](OCCO)[C@H](OC)C2)CC(=O)[C@H](C)/C=C(\C)[C@@H](O)[C@@H](OC)C(=O)[C@H](C)C[C@H](C)/C=C/C=C/C=C/1C" has what recorded AUC?
Reply: 0.134

###

experiment: Pharmacokinetics of RAD001 in blood, Phase I once-daily oral dosing; format: in vivo, Japanese patients; settings: human, whole blood, oral, 2.5 mg/day, tmax Range, Day 15, 2.5 mg/day (n = 3)
recorded_metric: Tmax

Ask: Requested field: Tmax. Item: "CO[C@H]1C[C@@H]2CC[C@@H](C)[C@@](O)(O2)C(=O)C(=O)N2CCCC[C@H]2C(=O)O[C@H]([C@H](C)C[C@@H]2CC[C@@H](OCCO)[C@H](OC)C2)CC(=O)[C@H](C)/C=C(\C)[C@@H](O)[C@@H](OC)C(=O)[C@H](C)C[C@H](C)/C=C/C=C/C=C/1C"
Reply: 1 to 1.98 h

###

assay: Pharmacokinetics of RAD001 in blood, Phase I once-daily oral dosing; assay type: in vivo, Japanese patients; settings: human, whole blood, oral, 2.5 mg/day, tmax Range, Day 1, 2.5 mg/day (n = 3)
recorded_metric: Tmax

Ask: What measured Tmax goes with "CO[C@H]1C[C@@H]2CC[C@@H](C)[C@@](O)(O2)C(=O)C(=O)N2CCCC[C@H]2C(=O)O[C@H]([C@H](C)C[C@@H]2CC[C@@H](OCCO)[C@H](OC)C2)CC(=O)[C@H](C)/C=C(\C)[C@@H](O)[C@@H](OC)C(=O)[C@H](C)C[C@H](C)/C=C/C=C/C=C/1C" ?
Reply: 0.98 to 2 h
